Provenance of the data: patent US12723255B2

test system: F1 hybrid maize plants; assay: efficacy field trial for quizalofop-P tolerance and clethodim sensitivity; type: in vivo; settings: scale 0 to 100; 0.32 lb ai/acre at VE-V2, V4, V8; with CTP unless label says no CTP
Observation type: average injury rating, V4 Growth Stage, 4x Quizalofop

Molecule	Reported measurement
MON-HT3: engineered oxygenase protein, amino acid sequence SEQ ID NO:22 (protein) MHAALSPLSQRFERIAVQPLTGVLGAEITGVDLREPLDDSTWNEILDAFHTYQVIYFPGQAITNEQHIAFSRRFGPVDPVPLLKSIEGYPEVQMIRREANESGRVIGDDWHTDSTFLDAPPAAVVMYAKEVPPYGGDTLFASMYTAWETLSPTMQATIEGLNVVHSATRVFGSLYQAQNRRFSNTSVKVMDVDAGDRETVHPLVVTHPETGRKGLYVNQVYCQRIEGMSEKESEPLLSFLFAHATKPEFTCRVRWQEGQVLVWDNLCTQHFAVPDYAGKFRYLTRTTVGGVRPAR	0.8
MON-HT2: engineered oxygenase protein, amino acid sequence SEQ ID NO:18 (protein) MHAALTPLTNKYRFIDVQPLTGVLGAEITGVDLREPLDDSTWNEILDAFHTYQVIYFPGQAITNEQHIAFSRRFGPVDPVPLLKSIEGYPEVQMIRREANESSRVIGDDWHSDSTFLDAPPAAVVMRAIEVPEYGGDTGFLSMYSAWETLSPTMQATIEGLNVVHSATKVFGSLYQATNWRFSNTSVKVMDVDAGDRETVHPLVVTHPVTGRRALYCNQVYCQKIQGMTDAESKSLLQFLYEHATKFDFTCRVRWKKDQVLVWDNLCTMHRAAPDYAGKFRYLTRTTVAGDKPSR	1.5
MON-HT6: engineered oxygenase protein, amino acid sequence SEQ ID NO:31 (protein) MHAALSPLSQKYRFIDVQPLTGVLGAEITGVTLREPLDDNTWNEILDAFHTYQVIYFPGQAITNEQHIAFSRRFGPVDPVPLLKSIEGYPEVQMIRREANESGRVIGDDWHTDSTFLDAPPAAVVMYAREVPPYGGDTGFLSMYSAWDTLSDTMKATIEGLNVVHSATRVFGSLYQAQNRRFSNTSVKVMDVDAGDRETVHPLVVSHPVTGRRALYCNQVYCQRIEGMTDAESKPLLQFLYEHATRFDFTCRVRWKKDQVLVWDNLCTMHRAVPDYAGKFRYLTRTTVAGDKPSR	0.0
